Where do these numbers come from? They come from the supplement of paper PMC10126150.

test system: ATP; assay: switch fluorescence ratio, 500 uM ATP over buffer (Cy3 cluster intensity, sum of 5 cycles each) (fold (ratio)); higher = stronger signal-on switching upon ATP binding; sequences stand for … in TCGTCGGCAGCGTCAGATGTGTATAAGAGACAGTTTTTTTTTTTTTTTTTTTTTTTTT…TC; conditions: aptamer strand: ATP DNA aptamer (quencher-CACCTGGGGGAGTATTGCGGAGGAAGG + anchor), 100 nM annealed; ATP concentration: 500 uM;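 note: ATP exposure 15 min at 22 °C before imaging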
Output 1 (yes) for switch fluorescence ratio not less than 1; output 0 (no) otherwise.

A selection of reference data follows.
- SEQUENCE INPUT: "CGGGACCTGG"
  ASSIGNED CLASS: "0 (no)"
- SEQUENCE INPUT: "CGCTTCTAGG"
  ASSIGNED CLASS: "1 (yes)"
- SEQUENCE INPUT: "TTTGGATGAA"
  ASSIGNED CLASS: "1 (yes)"
- SEQUENCE INPUT: "GGCCCCTGGC"
  ASSIGNED CLASS: "1 (yes)"

Quick check: does "CCGGGGGGTG" have switch fluorescence ratio greater than or equal to 1?
1 (yes)

Quick check: does "ACATGTGGGG" have switch fluorescence ratio greater than or equal to 1?
1 (yes)

Quick check: does "TCGTATACGG" have switch fluorescence ratio greater than or equal to 1?
0 (no)

Quick check: does "AGGGAGCGGC" have switch fluorescence ratio greater than or equal to 1?
1 (yes)

Quick check: does "TTGCACTAAC" have switch fluorescence ratio greater than or equal to 1?
1 (yes)

Quick check: does "GGGGAAGGGG" have switch fluorescence ratio greater than or equal to 1?
1 (yes)

Quick check: does "GAATAAAGAG" have switch fluorescence ratio greater than or equal to 1?
0 (no)

Quick check: does "ATCAATTGTC" have switch fluorescence ratio greater than or equal to 1?
1 (yes)

====

tested on: ATP; test: switch fluorescence ratio, 500 uM ATP over buffer (Cy3 cluster intensity, sum of 5 cycles each) (fold (ratio)); higher = stronger signal-on switching upon ATP binding; sequences stand for … in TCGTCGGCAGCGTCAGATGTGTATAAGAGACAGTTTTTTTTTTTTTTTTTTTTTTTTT…TC; conditions: aptamer strand: ATP DNA aptamer (quencher-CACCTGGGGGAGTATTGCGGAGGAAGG + anchor), 100 nM annealed; ATP concentration: 500 uM;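 note: ATP exposure 15 min at 22 °C before imaging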
Output criterion met for switch fluorescence ratio not less than 1; output criterion not met otherwise.

A selection of reference data follows.
- SEQUENCE INPUT: "ATACTTTAAA"
  ASSIGNED CLASS: "criterion met"
- SEQUENCE INPUT: "ATTTGTTTTA"
  ASSIGNED CLASS: "criterion met"
- SEQUENCE INPUT: "GGCCGAAGGG"
  ASSIGNED CLASS: "criterion met"
- SEQUENCE INPUT: "ATAGGACGGG"
  ASSIGNED CLASS: "criterion not met"
- SEQUENCE INPUT: "AAGTATATGG"
  ASSIGNED CLASS: "criterion met"

Quick check: does "TCCAAGGTCC" have switch fluorescence ratio greater than or equal to 1?
criterion met

Quick check: does "GCTCGGCCCG" have switch fluorescence ratio greater than or equal to 1?
criterion met

Quick check: does "GTGATTAGGG" have switch fluorescence ratio greater than or equal to 1?
criterion not met

Quick check: does "TGTTGTTACC" have switch fluorescence ratio greater than or equal to 1?
criterion met

Quick check: does "CCTAATGTAA" have switch fluorescence ratio greater than or equal to 1?
criterion met

Quick check: does "CTAGCAACGT" have switch fluorescence ratio greater than or equal to 1?
criterion met

Quick check: does "CACGGGGTCC" have switch fluorescence ratio greater than or equal to 1?
criterion met

Quick check: does "CGGGCAAGGT" have switch fluorescence ratio greater than or equal to 1?
criterion met

Quick check: does "GGTCTGGGTG" have switch fluorescence ratio greater than or equal to 1?
criterion met

Quick check: does "GCGGAATGCT" have switch fluorescence ratio greater than or equal to 1?
criterion met
